Biological target: RORC2 ligand binding domain (6-His-RORC2 LBD) (Homo sapiens)
Sequence (P51449 269-508 limits assumed): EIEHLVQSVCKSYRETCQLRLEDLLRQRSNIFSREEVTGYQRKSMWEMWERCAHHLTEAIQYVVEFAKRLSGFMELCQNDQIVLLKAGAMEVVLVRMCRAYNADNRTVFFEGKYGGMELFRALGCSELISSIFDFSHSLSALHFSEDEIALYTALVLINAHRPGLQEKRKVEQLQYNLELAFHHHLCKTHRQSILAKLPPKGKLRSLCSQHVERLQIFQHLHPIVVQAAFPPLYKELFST
just bin them by IC50: bin 0: < 6 nM; bin 1: ≥ 6 nM and < 10 nM; bin 2: ≥ 10 nM

entry_smiles=COc1c(NC(=O)c2ccc(SC)c(C#N)c2)cnc2c1c(C1CCN(C(=O)[C@H](C)C(C)(C)C)CC1)cn2C class_assignment="bin 0"
entry_smiles=COc1c(NC(=O)c2cccc(C#N)c2)cnc2c1c([C@@H]1CCN(C(=O)C3CCCC3)C(C)(C)C1)cn2C class_assignment="bin 0"
entry_smiles=COc1c(NC(=O)c2cccc(C#N)c2)cnc2c1c(C1CCN(C(=O)C3CCCC3)CC1)cn2C class_assignment="bin 2"
entry_smiles=COc1ccc(C(=O)Nc2cnc3c(c(C4CCN(C(=O)[C@H](C)C(C)(C)C)CC4)cn3C)c2OC)cc1C#N class_assignment="bin 1"
entry_smiles=COc1c(NC(=O)c2cc(C#N)cc(CO)c2)cnc2c1c(C1CCN(C(=O)C3CCCC3)CC1)cn2C class_assignment="bin 2"
entry_smiles=COc1cc(C#N)cc(C(=O)Nc2cnc3c(c(C4CCN(C(=O)C5CCCC5)CC4)cn3C)c2OC)c1 class_assignment="bin 2"
entry_smiles=COc1c(NC(=O)c2cccc(C#N)c2)cnc2c1c([C@@H]1CCN(C(=O)C(C)C)C(C)(C)C1)cn2C class_assignment="bin 1"
entry_smiles=COc1ccc(C(=O)Nc2cnc3c(c([C@@H]4CCN(C(=O)C5CCCCC5)C(C)(C)C4)cn3C)c2OC)cc1C#N class_assignment="bin 0"
entry_smiles=COc1ccc(C(=O)Nc2cnc3c(c(C4CCN(C(=O)C(C)C)CC4)cn3C)c2OC)cc1C#N class_assignment="bin 2"
entry_smiles=COc1c(NC(=O)c2cccc(C#N)c2)cnc2c1c([C@@H]1[C@@H]3CC[C@H]1CN(C(=O)C(C)C)C3)cn2C class_assignment="bin 2"

---

Biological target: RORC2 ligand binding domain (6-His-RORC2 LBD) (Homo sapiens)
Threshold check on IC50: strictly below 7 nM is True; on or above 7 nM is False.

entry_smiles=COc1c(NC(=O)c2cccc(C#N)c2)cnc2c1c(C1CCN(C(=O)[C@@H](C)C3CCCC3)CC1)cn2C target_or_test_system="RORC2 ligand binding domain (6-His-RORC2 LBD) (Homo sapiens)" class_assignment=False
entry_smiles=COc1c(NC(=O)c2cccc(C#N)c2)cnc2c1c(C1CCN(C(=O)[C@H](C)C(C)C)CC1)cn2C target_or_test_system="RORC2 ligand binding domain (6-His-RORC2 LBD) (Homo sapiens)" class_assignment=False
entry_smiles=COc1c(NC(=O)c2cccc(C#N)c2)cnc2c1c([C@@H]1CCN(C(=O)C3CCCCC3)C(C)(C)C1)cn2C target_or_test_system="RORC2 ligand binding domain (6-His-RORC2 LBD) (Homo sapiens)" class_assignment=True
entry_smiles=COc1c(NC(=O)c2cccc(C#N)c2)cnc2c1c(C1CCN(C(=O)[C@@H](C)C(C)(C)C)CC1)cn2C target_or_test_system="RORC2 ligand binding domain (6-His-RORC2 LBD) (Homo sapiens)" class_assignment=False
entry_smiles=COc1ccc(C(=O)Nc2cnc3c(c([C@@H]4CCN(C(=O)C5CCCC5)C(C)(C)C4)cn3C)c2OC)cc1C#N target_or_test_system="RORC2 ligand binding domain (6-His-RORC2 LBD) (Homo sapiens)" class_assignment=False

Reference source: patent US10336748B2
